Give self-cleavage for every item shown.
B1: Hairpin Ribozyme (parent)
chain: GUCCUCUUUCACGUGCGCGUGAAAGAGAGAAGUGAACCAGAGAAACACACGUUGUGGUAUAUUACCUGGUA

variants of: B1; experiment: self-cleavage, relative activity (ratio to wild type); higher = more cleavage; co-transcriptional

Example entries and their recorded answers appear below.
mutations	self-cleavage
U7A A45C	0.232
U5G C38G	0.133
C10U A26G	0.722
A22U A41G	0.776
C37G G40U	0.186

List reported self-cleavage for each of these variants:
1. G13C C65A
2. G29C U62C
3. A44G U60C
4. G32C A39U
5. C3A C38U
6. A43U U55A
7. G57A C65U

Out:
[0.726, 0.113, 0.0999, 0.174, 0.416, 0.129, 0.231]

Could I get self-cleavage for every one of these entries?
1. A41C A45G
2. C37U G56U
3. C6G U63A
4. A23U A41C
5. G21C A64G
6. A49C U67A

Out:
[0.257, 0.13, 0.125, 0.798, 0.564, 0.13]

Quick batch: self-cleavage for everything below.
1. U20C C46U
2. G32C A43U
3. A28G G42C
4. U14G A22C

Out:
0.103
0.127
0.47
0.75

Give self-cleavage for all variants that follow.
1. C12U A39G
2. A49U C50U
3. A22G A47C
4. A45G A61G
5. U20C A41U
6. U33A U62A
7. U9C U62C
8. G15A G17U

Out:
[0.297, 0.139, 0.27, 0.169, 1.36, 0.148, 0.143, 1.05]
